# protocol-text: yeast display, Sf9 membrane polyspecificity reagent, FACS + sequencing; frameworks hold sequencing errors
quantity-measured: polyreactivity (PSR sort gate)

QDQLVESVGGLVQAGGSLRLSCAASGITFRYYTMGWYRQAPGKESELVAVISWSGGSTYYADSVKGRFTISRDNAKNTVYLQMNSLKPEDTAVYYCAAVRRISRYDYWGQGTQVTVSS	high polyreactivity
QVQLVESGGGLVQAGGSLRLSCAASGRILSPYAMGWYRQAPGKERELVAAITSGGRTHYADSVKGRFTISRDNAKNTVYLQMNSLKRVDTAVYYCAARVRSGWWVRDDYWGQGTQVTVSS	high polyreactivity
QVQLVESGGGLVQAGGSIRLSCAASGRTFDGNALGWYRKAPGKERELVAAITSGGSTNYAYSVKGRFTISRDNAKNTVYVQRNSLKPEDTAVYYCAAERWYGYSHSDFGYWGQGTQVTVSS	high polyreactivity
QVQLEESGGGLVQAGGSLRLSCAASGSIFYDNVMGWSRQAPGKERELVAGITRGGSTNYADSVKGPFTISRDNAKNTVYLQMNSLKPEDTAVSYCAADGTYVWGSEEGNYWGQGTQVNVSS	low polyreactivity

Supply polyreactivity (PSR sort gate) value. Item: `QVQLVESGGGLVQAGGSLRLSCAASGSTFERYAMGWYRQAPGKKWSWLPYADSVKGRFTISRDNAKNTVYLQMNSLKPEDTAVYYCNAERDSPPLNLDRGWEYDYWGQGTQVTVSS`
low polyreactivity

* * *

# protocol-text: yeast display, Sf9 membrane polyspecificity reagent, FACS + sequencing; frameworks hold sequencing errors
quantity-measured: polyreactivity (PSR sort gate)

QVQLVESGGGLVQAGGSLRLICPASGRIFLTKAIGWYRPAPGIDRELVADISRGGSTYADSVKGRFTISSDNAKNTVYLQINSLKPEDTAVYYCAPDEYSPADSRTRYDYWGQGTQVSVSS	low polyreactivity
QVQLVESGVGLVQAGGSLRLSCAASGYIFYYYAMGWYRQAPGKESELVAAISSTVSTNYADSVKGRFTISRDNAKNTVYLQMNSLKPEDTAVYYCAAAQRVNHVWYDYWGQGTQVTVSS	low polyreactivity

* * *

# protocol-text: yeast display, Sf9 membrane polyspecificity reagent, FACS + sequencing; frameworks hold sequencing errors
quantity-measured: polyreactivity (PSR sort gate)

Answered cases to consult:
QVQLVESGVVLVQAGGSLRLSCAASGTIFDLNAMGWYRQAPGKEREFVAAISSGGGTYYADSVKGRFTISRDNANNTVYLQMNSQKPEDTAVYYCKARARRYGGRYYYWGQGTQVTVSS	high polyreactivity
QVQLVESGGGLVQAGGSLRLSCAASGFTFIPYAMGWYRQAPGKERELVASITYSGGRTYYADSVKGRFTISRDNAKNTVYLQMNSLKPEDTAVYYCNARSWGGYYHWGQGTQVTVSS	high polyreactivity
QVQLVESGGGLVQAGGSLRLSCAASGRTLVRYTMGWYRQAPGKERELVASISQRGGTTYYADSVKGRFTISRDNAKNTVYLQMNSLKPEDTAVYYCNKASVSGSSGGGYESWGQGTQVTVSS	low polyreactivity
QVQLVESGAGLVQAGGSLRLSCAASGSIFIHYAMGWYRQARGKERELVAAITGDGNTTYADSVKGRFTISRDNAQNTVNLQINSLKPEDTAVYYCAVTIVDYYWAFDYWGQGTQVTVSS	low polyreactivity
QVQLIESGGGLVQAGGSLRLSCAASGSTLGLYDMGWYRQAPGKERELVAAISTGSGSTYYADSVKGRFTISRDNAKYTVYLLMISLKPEDTAVYYCNTDAWYSPIWFWVDSWGQGTQVTVSS	low polyreactivity

Supply polyreactivity (PSR sort gate) value. Item: `QVQLVESGGGLVQAGGSLRLSCAASGRIFVRNAMGWYRPAPGKERELVAGITRGGGTNFADSVKGSFTISRDNAKNTVYLQMNSLKPEVTAVYDCNALHRARLFGHYPYESWGHGTQVTVSS`
high polyreactivity

Supply polyreactivity (PSR sort gate) value. Item: `QVQLVESGGGLVQAGGSLRLSCAASGRIFQINAMGWYRQAPGKERELVAAISWSDDTTYYADSVKGRFTISRDNAKNTVYLQMISLKPEDTAVYYCAAERGQDYSYSGDDDYWGQGTQVTVSS`
high polyreactivity

Supply polyreactivity (PSR sort gate) value. Item: `QVQLVESGGGLVQAGGSLRLSCAASGFTFGKNAMGWYRQAPGKERELVAAIDTGDRTNYADSVKGRFTISRDNAKNTVYLQMNSLKPEDTAVYYCATDVVFSSYDYWGQGTQVTVSS`
low polyreactivity

Supply polyreactivity (PSR sort gate) value. Item: `QVQLVESGGGLVQAGGSLRLSCAASGRTFPVYAMGWYRQAPGKERELVAAIRFSGGSTYYADSVKGRFTISRDNAKNTVYLQMNSLKPEDTAVYYCAADDWSWSTAWVPWYNYDYWGQGTQVTVSS`
low polyreactivity

Supply polyreactivity (PSR sort gate) value. Item: `QAELVESGGGLVQAGGSLRLSCAASGFTFTAYAMGWYRQAPGKERELVAAISYRGGRTNYAYSVKGRFTISRDNAKNTVYLQMNSLKPEDTAVYYCAARPRISTREMDYWGQGTQVTVSS`
high polyreactivity

Supply polyreactivity (PSR sort gate) value. Item: `QFQLVESGGGLVQAGGSLRLSCAASGFIFPLYTMGWYRQAPGKETELVAAIDGGGTTYADSVKGRFTISRDNAKNTVYLQMNSLKPEDTAVYYCAADWYYQYSIYRYGYWGQGTQVTVSS`
low polyreactivity

* * *

# protocol-text: yeast display, Sf9 membrane polyspecificity reagent, FACS + sequencing; frameworks hold sequencing errors
quantity-measured: polyreactivity (PSR sort gate)

Answered cases to consult:
QVQLVESGGGLVQAGGSLRLSCAASGFTFWWYAMGWYRQAPGKERELVAAISSGGSTNYADSVKGRFTISRDNAKNTVYLQMNSLKPEDTAVYYCNKDYYGSPSSYYGYDYWGQGTQVTESS	high polyreactivity
QVQLVESGGGIVQAGGSLRLSCAASGLIIQNNAMVWNRQAPGKERELVAAITSDGSTYADSVKGRFTISRDNAKNTVYLQMNSLKPEDTAVYYCNADGITSLPVPALDYWGQGTQVTVSS	low polyreactivity
QVQLVESGGGLVQAGGSLRLSCAASGIISRVYAMGWYRQAPGKERELVAAITRRGSTTYYADSVKGRFTISRDNAKNTVYLQMNSLKPEDTAVYYCAALARYGPRYRGDYWGQGTQVTVSS	high polyreactivity
QVQLVESGGGLVQAGGSLRLSCAASGGTFINYAMGWYRQAPGKERELVAGISQSGDSTYYADSVKGRFTISRDNAKNTVYLQMNSLKPEDTAVYYCNADAVAQQYDWWENYDYWGQGTQVTVSS	high polyreactivity
QVQLVESGAGLVQAGGSLRLSCAASGSIFVVYAMGWYRQAPWKERELVAAISWGIGSTYYADSVKGRFTISRDNAKNTVYLQMNSLKPEDTAVYYCAADTDIVLYDYWGQGTQVTVSS	low polyreactivity

Supply polyreactivity (PSR sort gate) value. Item: `QVQLVESGGGLVQAPGSLRLSSAASGRIFNQYGMGWYRQAPGKERELVAAIRSGDSTNYADSVKGRFTISRDNAKNTVYLQMNSLKQEDSAVYYCARDRPGDYAGYYYWGKGTQVTVSS`
low polyreactivity

Supply polyreactivity (PSR sort gate) value. Item: `QVQLVESGGGLVQAGGSLRLSCAASGFTSRYVMGWYRQAPGKERELVASISRSGGSTYYADSVKGRFTISRDNAKNTVYLQMNSLKPEDTAVYYCAALGLSYSSRYYHWQNEFDYWGQGSQVTVSS`
high polyreactivity

Supply polyreactivity (PSR sort gate) value. Item: `QVQIVESGGVLVQAGGSLRLSCAASGFNYTNYAMGWYIQSPGKERELVAAITYSGGSKYYADSVKGRFTISRDIAKNTVYLQMNSLKPEDTAVFFCNKYPSFYGAGYYWGQGTQVTVSS`
high polyreactivity

Supply polyreactivity (PSR sort gate) value. Item: `QVQLVESGGGLVQAGCSLRLICAASGLYAMGWYRQAPGKERELVADINSSGGSITNYADSVKGRFTISRDNAKNTVYLQMNSLKPEDTAVYDCAAPALGNYFYGYDYWGQGTQVTVSS`
low polyreactivity

Supply polyreactivity (PSR sort gate) value. Item: `QVQLVESGGGLVQAGGSLRLSCAASGITFTRNAMGWYRQAPGKERELVAVITSSGRTKYADSVKGRFTISRDNAKNTVYLQMNSLKPEDTAVYYCAKVLFGTVPYGYWGHGTQVTVSS`
high polyreactivity

Supply polyreactivity (PSR sort gate) value. Item: `QVQLVESGGGLVQAGGSLRLSCAASGSTFPYYAMGWYRLAPGKERELVAAISFRGTRTYYADSVKGRFTISRDNAKNTVYLQMNSLKPEDTAVYYCAADASTYYGTQWASYYYWGQGTQVTVSS`
high polyreactivity

* * *

# protocol-text: yeast display, Sf9 membrane polyspecificity reagent, FACS + sequencing; frameworks hold sequencing errors
quantity-measured: polyreactivity (PSR sort gate)

Answered cases to consult:
QVQLVESGGGLVQAGGSLRLSCAASGYIFDVYAMGWYRQAPGKERELVATISSGTGITKYADSVKGRFTISRDNAKNTVYLQMNSLKPEDTAVYYCAADYASLSWLGFYYWGQGTQVTVSS	low polyreactivity
QVQLVESGGGLVQAGGSILLSCAASGFIFLYYAMGWYRQAPGKERELVADISRGADTKYADTVKGRFTISRDNAKNTVYLQMNSLKPEDTAVYYCATVITTFWFPYPGVELGYWGQGTQVNVSS	low polyreactivity
QVQLVESGGGLVQARGSLRLSCAASGSIFSYYARGLYRQAPGKESELVAAITRGGTTYYADSVKGRFTISRDNAKNSVYLQMNSLKPEDTAVYYCAVYYYSGTAGYRYGYWGQGSQVTVSS	high polyreactivity
QVQLVESAGGLVQAGGSLRLTCAASGNIFRRYAMGWYRQAPGKERELVAAISWRSGNTYYADSVKGRFTISRDNAKNTVYLQMNSLKPEDTAVYYCNKDYWWIPQLPHYNYWGQGTQVTVSS	low polyreactivity
LVQLVESGGGLVQAGGSLRLSCAASGNIFVSYAMGWYRQAPGKERELVAAISKSGGSTYYADSVKGRFTISRDNAKNTVYLQMNSLKPEDTAVYDCAARWYNRVKYQKFNYWGQGTQVTVSS	high polyreactivity
QVQLVESGGGLVQAGGSLRLSCAASGFIFLDYAMGWYRQAPGKERELVAAISSRGARTYYADSVKGRFTISRDNAKNTVYLQMNSLKPEDTAVYYCAARGPLVRYGYWGHGTQVTVSS	high polyreactivity
QVQLVESGGGLVQAGGSLRLSCAASGRIFTFNAMGWYRQAPGKERELVAAIRRGGGRTYYADSVKGRFTISRDNAKNTVYLQMNSLKPEDTAVYYCAAPFYRQSLIEYDYWGQGTQVTVSS	high polyreactivity
QVQLVESGGGLVQAGGSLRLSCAASGFNFWRYAMGWYRQAPGKERELVAVITWSGTRTYYADSVKGRFTISRDNAKNTVYLQMNSLKPEDTAVYYCAALYYGFRLTYGYDYWGQGTQVTVSS	high polyreactivity
QVQLVESGGGLVQAGGSLRLSCAASGSIIIGNTMGWYRQAPGKERELVATIRRSGSRTYYADSVKGRFTISRDNAKNTVYLQMNSLKPEDTAVYYCAADRLRTSGYKTIYDYWGQGTQVTVSS	low polyreactivity
QVQLVESGGGLVQAGGSLRLSCAASGRIFYGYAMGWYRQAPGKERELVAASRYSGGSTYADSVKGRFTISRDNAKNTVFLQMNSLKPEVTAVYYCAAGDAPYVAWDQYQDNVFRYDYWGQGTQVTVSS	low polyreactivity

Supply polyreactivity (PSR sort gate) value. Item: `QVQLVESGGGLVQAGGSLRLSCAASGSIFTVYAMGWYRQAPGKERELVAAIRRTGSRTYYADSVKGRFTISRDNAKNTVYLQMNSLKPEDTAVYYCAADGWYDRRSVRLNYWGQGTQVTVSS`
high polyreactivity
